Catalogue of Km readings, one per entry.
ASSAY TARGET: Bm-iAANAT3 (Bombyx mori)
EXPERIMENT: Steady-state kinetic characterization with Ellman's reagent
Type: biochemical
CONDITION PARAMETERS: amine substrate varied; 500 μM acetyl-CoA, 22°C, 300 mM Tris pH 8.0, 150 μM DTNB

[
  {
    "MOLECULE": "NC[C@H](O)c1ccc(O)c(O)c1 [Norepinephrine]",
    "MEASURE UNIT": "µM",
    "Km": 140
  },
  {
    "MOLECULE": "NCCc1c[nH]cn1 [Histamine]",
    "MEASURE UNIT": "µM",
    "Km": 1700
  },
  {
    "MOLECULE": "NCCc1ccc(O)c(O)c1 [Dopamine]",
    "MEASURE UNIT": "µM",
    "Km": 330
  },
  {
    "MOLECULE": "NCCc1ccc(O)cc1 [Tyramine]",
    "MEASURE UNIT": "µM",
    "Km": 63
  }
]

====

ASSAY TARGET: Bm-iAANAT3 (Bombyx mori, UniProt D7EZJ9)
EXPERIMENT: Dead-end and product inhibition analysis
Format: biochemical
CONDITION PARAMETERS: Ki,s, competitive vs. tryptamine (varied); acetyl-CoA fixed at 100 μM
pKi: −log10 of the molar value.
MEASURED QUANTITY: pKi

[
  {
    "LINE NOTATION": "OCCc1ccc(O)cc1",
    "RECORDED RESULT": 4.05
  }
]

====

ASSAY TARGET: Bm-iAANAT3 (Bombyx mori, UniProt D7EZJ9)
EXPERIMENT: Steady-state kinetic characterization with Ellman's reagent
Assay type: biochemical
CONDITION PARAMETERS: amine substrate varied; 500 μM acetyl-CoA, 22°C, 300 mM Tris pH 8.0
Reported kcat values for the following compounds.

[
  {
    "COMPOUND": "NCCc1ccc(O)c(O)c1",
    "MEASURE UNIT": "s⁻¹",
    "kcat": 55
  },
  {
    "COMPOUND": "NC[C@H](O)c1ccc(O)c(O)c1 [Norepinephrine]",
    "MEASURE UNIT": "s⁻¹",
    "kcat": 5.3
  },
  {
    "COMPOUND": "NCCc1ccc(O)cc1",
    "MEASURE UNIT": "s⁻¹",
    "kcat": 27
  },
  {
    "COMPOUND": "NCCc1c[nH]cn1",
    "MEASURE UNIT": "s⁻¹",
    "kcat": 33
  }
]

====

ASSAY TARGET: Bm-iAANAT3 (Bombyx mori, UniProt D7EZJ9)
EXPERIMENT: Dead-end and product inhibition analysis
Format: biochemical
CONDITION PARAMETERS: Ki,i, uncompetitive vs. acetyl-CoA (varied); tryptamine fixed at 100 μM

[
  {
    "LINE NOTATION": "OCCc1ccc(O)cc1",
    "ASSAY TARGET": "Bm-iAANAT3 (Bombyx mori, UniProt D7EZJ9)",
    "Ki (µM)": 230
  }
]

// provenance: paper PMC6334763
